Attribution: paper PMC3422576

system under test: Mouse Smo N223D (Mus musculus, UniProt P56726, N223D)
Sequence (P56726 33-793 N223D): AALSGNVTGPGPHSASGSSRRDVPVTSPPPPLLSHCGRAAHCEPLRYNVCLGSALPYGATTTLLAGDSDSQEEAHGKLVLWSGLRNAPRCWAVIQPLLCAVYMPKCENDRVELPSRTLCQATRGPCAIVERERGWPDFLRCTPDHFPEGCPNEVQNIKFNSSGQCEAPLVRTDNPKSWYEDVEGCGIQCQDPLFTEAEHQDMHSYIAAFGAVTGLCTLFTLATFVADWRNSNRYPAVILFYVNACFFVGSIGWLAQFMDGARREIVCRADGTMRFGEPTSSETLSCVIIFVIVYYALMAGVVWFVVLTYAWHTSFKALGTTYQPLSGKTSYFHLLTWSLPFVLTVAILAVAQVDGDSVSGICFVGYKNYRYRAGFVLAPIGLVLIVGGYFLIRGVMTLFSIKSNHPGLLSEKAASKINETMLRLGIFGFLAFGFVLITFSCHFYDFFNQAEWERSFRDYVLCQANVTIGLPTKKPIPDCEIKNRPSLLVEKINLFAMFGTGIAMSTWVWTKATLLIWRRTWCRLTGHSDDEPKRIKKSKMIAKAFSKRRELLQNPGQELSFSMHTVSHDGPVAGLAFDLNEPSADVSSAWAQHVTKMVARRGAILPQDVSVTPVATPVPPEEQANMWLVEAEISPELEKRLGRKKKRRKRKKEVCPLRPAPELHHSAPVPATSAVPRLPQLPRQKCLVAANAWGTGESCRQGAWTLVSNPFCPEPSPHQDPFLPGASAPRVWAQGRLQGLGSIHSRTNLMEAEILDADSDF
readout type: IC50

// query Specify IC50 for "Cc1c(C(=O)Nc2ccc(N3C[C@@H](C)O[C@@H](C)C3)nc2)cccc1-c1ccc(OC(F)(F)F)cc1" and stop.
// result > 10 µM

====

system under test: human Smo (Homo sapiens, UniProt Q99835)
Sequence (Q99835 28-787): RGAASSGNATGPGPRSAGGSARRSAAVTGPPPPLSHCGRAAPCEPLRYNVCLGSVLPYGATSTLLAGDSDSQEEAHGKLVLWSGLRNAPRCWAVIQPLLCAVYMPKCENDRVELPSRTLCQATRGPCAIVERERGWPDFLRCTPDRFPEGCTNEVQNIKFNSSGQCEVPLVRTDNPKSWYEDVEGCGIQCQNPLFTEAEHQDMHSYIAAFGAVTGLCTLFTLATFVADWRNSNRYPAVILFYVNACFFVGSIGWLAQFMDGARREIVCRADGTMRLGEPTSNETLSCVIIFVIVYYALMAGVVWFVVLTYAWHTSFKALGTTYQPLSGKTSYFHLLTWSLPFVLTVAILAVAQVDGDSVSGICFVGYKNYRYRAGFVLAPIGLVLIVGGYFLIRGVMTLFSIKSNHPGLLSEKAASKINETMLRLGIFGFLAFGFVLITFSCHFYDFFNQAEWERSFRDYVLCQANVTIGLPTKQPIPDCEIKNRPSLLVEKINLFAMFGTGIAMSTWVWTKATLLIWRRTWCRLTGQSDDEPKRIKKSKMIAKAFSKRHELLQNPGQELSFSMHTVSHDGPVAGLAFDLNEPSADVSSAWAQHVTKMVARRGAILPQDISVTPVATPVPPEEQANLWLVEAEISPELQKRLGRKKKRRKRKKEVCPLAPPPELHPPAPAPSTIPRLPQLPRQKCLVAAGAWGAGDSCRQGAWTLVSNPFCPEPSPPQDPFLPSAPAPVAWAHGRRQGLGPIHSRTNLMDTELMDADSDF
readout type: pIC50
One number for each entry, as −log10 of the molar value.

// query For the compound "Cc1c(C(=O)Nc2ccc(N3C[C@@H](C)O[C@@H](C)C3)nc2)cccc1-c1ccc(OC(F)(F)F)cc1" , report pIC50.
// result 7.96

====

system under test: Mouse Smo S391N (Mus musculus, UniProt P56726, S391N)
Sequence (P56726 33-793 S391N): as the sequence (P56726 33-793 N223D) above, with D191N, S359N counted along it
pIC50: −log10 of the molar value.
readout type: pIC50

// query Return the recorded pIC50 value; entry: Cc1c(C(=O)Nc2ccc(N3C[C@@H](C)O[C@@H](C)C3)nc2)cccc1-c1ccc(OC(F)(F)F)cc1 [NVP-LDE225]
// result < 5.00

====

system under test: Mouse Smo D388N (Mus musculus, UniProt P56726, D388N)
Sequence (P56726 33-793 D388N): as the sequence (P56726 33-793 N223D) above, with D191N, D356N counted along it
Format: cell-based
readout type: IC50

// query Identify the reported IC50 for the following entry. "Cc1c(C(=O)Nc2ccc(N3C[C@@H](C)O[C@@H](C)C3)nc2)cccc1-c1ccc(OC(F)(F)F)cc1"
// result > 10 µM

====

system under test: Mouse Smo G457S (Mus musculus, UniProt P56726, G457S)
Sequence (P56726 33-793 G457S): as the sequence (P56726 33-793 N223D) above, with D191N, G425S counted along it
readout type: IC50 (nM)
One number for each entry, in nM.

// query State, in one line, measured IC50 of "Cc1c(C(=O)Nc2ccc(N3C[C@@H](C)O[C@@H](C)C3)nc2)cccc1-c1ccc(OC(F)(F)F)cc1"
// result 400
